Molecular target: T1, DR5-IgG (human, UniProt O14763 56-184)
T1 construct: also called Apo-2-IgG; not shown: IgG part; prepared as in WO98/51793, not described here
T1 sequence (O14763 56-184): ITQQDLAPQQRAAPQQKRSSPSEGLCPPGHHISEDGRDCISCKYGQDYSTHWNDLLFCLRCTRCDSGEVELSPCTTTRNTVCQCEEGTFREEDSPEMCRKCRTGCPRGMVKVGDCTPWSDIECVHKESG
Test: BIAcore, immobilized receptor-IgG; against wild-type Apo2L/TRAIL(114-281)
Property name: KD ratio (mutant/wt) (ratio)
Note: unit ratio is implicit; provide only the numeric part.

Fill in: KD ratio (mutant/wt) of Apo2L/TRAIL(114-281) mutant DR5-5 (ligand, Untagged, from pAPOK5.0) VRERGPQRVAAHITGTRGRSNTLSSPNSKNEKALGRKINSWESSRSGHSFLSNLHLRNGELVIHEKGFYYIYSQTSFRFTEEIKENTKNDKQMVQYIYKYTSYPDPILLMKSARNSCWSKDAEYGLYSIYQGGIFELKENDRIFVSVTNEGLLDMNHEASFFGAFLVG is ___ 2.5

Fill in: KD ratio (mutant/wt) of Apo2L/TRAIL(114-281) mutant DR5-23 (ligand, Untagged, from pAPOK5.0) VRERGPQRVAAHITGTRGRSNTLSSPNSKNEKALGRKINSWESSRSGHSFLSNLHLRNGELVIHEKGFYYIYSQTAFKFREEIKENTKNDKQMVQYIYKYTSYPDPILLMKSARNSCWSKDAEYGLYSIYQGGIFELKENDRIFVSVTNESLLDMEHEASFFGAFLVG is ___ 2.4

Fill in: KD ratio (mutant/wt) of Apo2L/TRAIL(114-281) mutant DR5-11 (ligand, Untagged, from pAPOK5.0) VRERGPQRVAAHITGTRGRSNTLSSPNSKNEKALGRKINSWESSRSGHSFLSNLHLRNGELVIHEKGFYYIYSQTAFRFKEEIKENTKNDKQMVQYIYKYTSYPDPILLMKSARNSCWSKDAEYGLYSIYQGGIFELKENDRIFVSVTNEGLVDMSHEASFFGAFLVG is ___ 2.2

Fill in: KD ratio (mutant/wt) of Apo2L/TRAIL(114-281) mutant DR5-21 (ligand, Untagged, from pAPOK5.0; h-0007 lists D267Q) VRERGPQRVAAHITGTRGRSNTLSSPNSKNEKALGRKINSWESSRSGHSFLSNLHLRNGELVIHEKGFYYIYSQTAFKFKEEIKENTKNDKQMVQYIYKYTSYPDPILLMKSARNSCWSKDAEYGLYSIYQGGIFELKENDRIFVSVTNEDLLNMEHEASFFGAFLVG is ___ 1.2

Fill in: KD ratio (mutant/wt) of Apo2L/TRAIL(114-281) mutant DR5-4 (ligand, Untagged, from pAPOK5.0) VRERGPQRVAAHITGTRGRSNTLSSPNSKNEKALGRKINSWESSRSGHSFLSNLHLRNGELVIHEKGFYYIYSQTAFRFREEIKENTKNDKQMVQYIYKYTSYPDPILLMKSARNSCWSKDAEYGLYSIYQGGIFELKENDRIFVSVTNEQLLDMNHEASFFGAFLVG is ___ 1.3
